Origin of the recorded values: patent US20230272056A1

- targetSystem: T1, human LAP-TGFβ1 (construct not stated) (human, UniProt P01137 30-390)
- T1 construct: also called human LAP-TGFβ isoform 1; titrant
- T1 sequence (P01137 30-390 limits assumed): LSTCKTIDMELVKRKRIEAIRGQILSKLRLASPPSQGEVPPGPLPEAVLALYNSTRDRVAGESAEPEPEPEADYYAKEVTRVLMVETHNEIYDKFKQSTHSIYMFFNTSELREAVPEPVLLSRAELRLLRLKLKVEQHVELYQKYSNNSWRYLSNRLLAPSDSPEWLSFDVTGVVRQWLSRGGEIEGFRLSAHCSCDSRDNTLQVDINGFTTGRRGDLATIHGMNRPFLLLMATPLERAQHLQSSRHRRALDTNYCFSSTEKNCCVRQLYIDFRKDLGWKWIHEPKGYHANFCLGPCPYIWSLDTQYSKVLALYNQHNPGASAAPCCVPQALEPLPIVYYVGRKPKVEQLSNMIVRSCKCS
- assayProtocol: KinExA, mAb as constant binding partner

binder | u | koff
16BLM (antibody, human IgG1, kappa, L234A L235A, V domains shown, IgG1 L234A L235A D265S/kappa; also called 79BLH; 52BMD) VH: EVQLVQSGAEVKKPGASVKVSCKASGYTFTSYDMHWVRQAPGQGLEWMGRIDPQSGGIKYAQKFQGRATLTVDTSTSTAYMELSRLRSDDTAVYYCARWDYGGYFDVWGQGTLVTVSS VL: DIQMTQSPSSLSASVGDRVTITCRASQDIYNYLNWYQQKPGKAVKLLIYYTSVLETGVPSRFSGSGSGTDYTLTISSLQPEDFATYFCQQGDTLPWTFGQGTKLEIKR | s⁻¹ | 1.38e-05
15BLM (antibody, human IgG1, kappa, L234A L235A, V domains shown, IgG1 L234A L235A D265S/kappa; also called 78BLH; 51BMD) VH: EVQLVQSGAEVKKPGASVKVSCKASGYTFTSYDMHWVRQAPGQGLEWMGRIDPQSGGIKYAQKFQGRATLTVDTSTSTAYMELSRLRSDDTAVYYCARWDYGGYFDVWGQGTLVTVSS VL: DIQMTQSPSSLSASVGDRVTITCRASQDIYNYLNWYQQKPGKAVKLLIYYTSRLETGVPSRFSGSGSGTDYTLTISSLQPEDFATYFCQQGDTLPWTFGQGTKLEIKR | s⁻¹ | 2.56e-05
11BLM (antibody, human IgG1, kappa, L234A L235A, V domains shown, IgG1 L234A L235A D265S/kappa; also called 74BLH; 47BMD) VH: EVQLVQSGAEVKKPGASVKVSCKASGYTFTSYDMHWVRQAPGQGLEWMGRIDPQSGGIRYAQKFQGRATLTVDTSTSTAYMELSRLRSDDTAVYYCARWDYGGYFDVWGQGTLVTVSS VL: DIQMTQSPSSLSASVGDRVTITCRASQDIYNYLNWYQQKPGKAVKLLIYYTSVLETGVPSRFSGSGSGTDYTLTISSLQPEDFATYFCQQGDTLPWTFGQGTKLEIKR | s⁻¹ | 8.14e-06
19BLM (antibody, human IgG1, kappa, L234A L235A, V domains shown, IgG1 L234A L235A D265S/kappa; also called 82BLH; 55BMD) VH: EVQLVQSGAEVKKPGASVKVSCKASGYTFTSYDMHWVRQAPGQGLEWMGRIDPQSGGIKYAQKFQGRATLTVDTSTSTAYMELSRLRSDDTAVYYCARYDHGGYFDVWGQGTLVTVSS VL: DIQMTQSPSSLSASVGDRVTITCRASQDIYNYLNWYQQKPGKAVKLLIYYTSYLETGVPSRFSGSGSGTDYTLTISSLQPEDFATYFCQQGDTLPWTFGQGTKLEIKR | s⁻¹ | 1.98e-06
07BLM (antibody, human IgG1, kappa, L234A L235A, V domains shown, IgG1 L234A L235A D265S/kappa; also called 70BLH; 43BMD) VH: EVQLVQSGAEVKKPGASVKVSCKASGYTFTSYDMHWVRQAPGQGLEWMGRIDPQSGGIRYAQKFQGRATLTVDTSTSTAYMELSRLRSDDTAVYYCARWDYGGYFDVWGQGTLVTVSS VL: DIQMTQSPSSLSASVGDRVTITCRASQDIYSYLNWYQQKPGKAVKLLIYYTSNLETGVPSRFSGSGSGTDYTLTISSLQPEDFATYFCQQGDTLPWTFGQGTKLEIKR | s⁻¹ | 2.82e-05
18BLM (antibody, human IgG1, kappa, L234A L235A, V domains shown, IgG1 L234A L235A D265S/kappa; also called 81BLH; 54BMD) VH: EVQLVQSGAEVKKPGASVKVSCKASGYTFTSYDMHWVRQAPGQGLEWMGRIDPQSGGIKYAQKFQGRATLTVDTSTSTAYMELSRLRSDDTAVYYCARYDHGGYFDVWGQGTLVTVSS VL: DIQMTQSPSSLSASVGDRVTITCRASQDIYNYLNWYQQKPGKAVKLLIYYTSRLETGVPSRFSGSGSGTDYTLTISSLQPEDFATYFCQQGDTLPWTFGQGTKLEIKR | s⁻¹ | 6.09e-06
12BLM (antibody, human IgG1, kappa, L234A L235A, V domains shown, IgG1 L234A L235A D265S/kappa; also called 75BLH; 48BMD) VH: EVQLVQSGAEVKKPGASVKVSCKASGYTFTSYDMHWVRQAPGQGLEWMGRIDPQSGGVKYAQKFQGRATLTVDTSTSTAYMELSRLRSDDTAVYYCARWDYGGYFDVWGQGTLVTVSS VL: DIQMTQSPSSLSASVGDRVTITCRASQDIYNYLNWYQQKPGKAVKLLIYYTSVLETGVPSRFSGSGSGTDYTLTISSLQPEDFATYFCQQGDELPWTFGQGTKLEIKR | s⁻¹ | 7.71e-06
